system: Escherichia coli TOP10; experiment: shrunken log2 fold change of peptide-encoding DNA abundance (4.5 h post-induction vs induction); higher = less antimicrobial activity (less host growth inhibition); settings: time post-induction: 4.5 h; library: site-saturation at positions 5, 18, 19, 20;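 note: peptides expressed intracellularly from a pBAD plasmid library in pooled LB shake-flask culture, induced with 0.3% L-arabinose, DNA abundance read by NGS, three biological replicates, DESeq2 with apeglm shrinkage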
Answer each item with its documented shrunken log2 fold change.
Please reply with the number alone, leaving off any unit.

Task: Can you share its shrunken log2 fold change? I mean this sequence: `RRIRVRPPRLPRPRPRPMGTPRP`
Result: 0.113

Task: Requested field: shrunken log2 fold change. Item: `RRIRRRPPRLPRPRPRPTKWPRP`
Result: 0.0371

Task: Endpoint output: shrunken log2 fold change of `RRIRVRPPRLPRPRPRPQPCPRP` . Value?
Result: -0.0059

Source: the supplement of paper PMC9112550
